Tested on: Phaedon cochleariae
Assay: Phaedon cochleariae - spray test
Assay type: in vivo
Conditions: application rate 100 g/ha; larvae on Chinese cabbage leaf discs; after 7 days
MEASURED PROPERTY: efficacy

1) CN(C(=O)c1cc(-c2cnn(-c3c(Cl)cc(C(O)(C(F)(F)F)C(F)(F)F)cc3Cl)c2)cnc1Cl)C1(C#N)CC1 [I-T3-223] : 100%
2) Cc1ncc(-c2cnn(-c3c(Cl)cc(C(F)(C(F)(F)F)C(F)(F)F)cc3C(F)(F)F)c2)cc1C(=O)NC1CC1 [I-T3-124] : 100%
3) CCc1cc(C(F)(F)C(F)(F)F)cc(C)c1-n1cc(-c2ccc(Cl)c(C(=O)NC3CC3)c2)cn1 [I-T3-81] : 100%
4) CCS(=O)(=O)c1cc(C(F)(F)F)cc(C#N)c1-n1cc(-c2ccc(Cl)c(C(=O)NC3(C#N)CC3)c2)cn1 [I-T3-190] : 100%
5) N#CC1(NC(=O)c2cc(-c3cnn(-c4ncc(C(F)(C(F)(F)F)C(F)(F)F)cc4SCC(F)(F)F)c3)ccc2Cl)CC1 [I-T3-171] : 100%
6) O=C(NC1CC1)c1cc(-c2cnn(-c3c(Cl)cc(C(F)(C(F)(F)F)C(F)(F)F)cc3OC(F)(F)F)c2)ccc1Cl [I-T3-162] : 100%
7) O=C(NC1CC1)c1cc(-c2cnn(-c3c(Cl)cc(C(F)(C(F)(F)F)C(F)(F)F)cc3Cl)c2)cnc1NC1CC1 [I-T3-137] : 100%
